# Tested on: PXR homodimer (NR concentration 270 nM)
# assay text: PBM binding z-score (relative to random genomic background probes); higher = stronger binding; sequences stand for … in GC…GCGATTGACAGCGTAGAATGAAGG
assay metric: PBM binding z-score
Field format: numeric only.

Please review the following examples before continuing.
>>> endpoint_result("CCGAGTGGGGCAAGGTTACCATAACGCACAGCCA")
0.123
>>> endpoint_result("CTACCAAGGTGAACAAGGTCGTTGAATACTATTC")
2.05

--- query ---
The reported PBM binding z-score of the sequence CCTAGCAGGCCTGGGTCACTCAAGCATTTCGCTT was -0.661
